Below, each entry is listed with its recorded Ratio IC50.
test: Selectivity index, ratio of IC50 for ovine COX-1 to IC50 for human recombinant COX-2
Answer using only a numeral; do not append any unit.

// worked examples, Ratio IC50 included
[[record]]
smiles_record = "CCCCCCCCCCCCCc1cc(O)cc(O)c1"
readout_name = "Ratio IC50"
numeric_result = 0.87

[[record]]
smiles_record = "CCCCCCCCCCCCCc1cc(O)cc(OC)c1O"
readout_name = "Ratio IC50"
numeric_result = 2.18

[[record]]
smiles_record = "CCCCCCCCCCCCCCCc1cc(O)cc(O)c1"
readout_name = "Ratio IC50"
numeric_result = 2.38


Alright, here's another molecule for you.
Short answer for "CCCCCCCCCCCc1cc(O)cc(OC)c1O" : Ratio IC50 was 1.95

###

IC50 listing for selected compounds.
target: Polyunsaturated fatty acid 5-lipoxygenase (Homo sapiens, UniProt P09917); test: Inhibition of human recombinant 5-LOX assessed as reduction in LTB4 level using 800 uM arachidonic acid as substrate preincubated with enzyme for 10 mins followed by substrate addition and measured after 10 mins by ELISA
Sequence (P09917 whole entry): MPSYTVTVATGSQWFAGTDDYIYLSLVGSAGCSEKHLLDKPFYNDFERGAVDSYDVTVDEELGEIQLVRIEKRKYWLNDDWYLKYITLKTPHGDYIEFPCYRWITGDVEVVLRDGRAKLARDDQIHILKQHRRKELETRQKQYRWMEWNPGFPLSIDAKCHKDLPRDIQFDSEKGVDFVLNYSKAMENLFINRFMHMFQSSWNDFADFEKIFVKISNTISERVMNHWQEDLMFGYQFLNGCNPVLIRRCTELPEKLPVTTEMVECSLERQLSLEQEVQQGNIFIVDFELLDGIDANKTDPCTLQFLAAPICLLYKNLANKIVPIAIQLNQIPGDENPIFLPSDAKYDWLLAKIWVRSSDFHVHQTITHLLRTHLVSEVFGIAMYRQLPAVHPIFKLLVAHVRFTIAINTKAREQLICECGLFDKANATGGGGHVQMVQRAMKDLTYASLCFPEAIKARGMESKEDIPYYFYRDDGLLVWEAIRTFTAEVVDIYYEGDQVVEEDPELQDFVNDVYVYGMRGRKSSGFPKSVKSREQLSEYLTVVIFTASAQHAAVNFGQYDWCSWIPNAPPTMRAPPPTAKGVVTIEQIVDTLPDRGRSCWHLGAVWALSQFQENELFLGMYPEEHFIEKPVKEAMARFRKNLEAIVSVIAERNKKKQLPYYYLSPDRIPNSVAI
Respond with a number, then the unit of measure.

[[record]]
compound = "COC1=CC(=O)C=C(Br)C1OC(C)=O (stereo not drawn)"
result = "170 nM"


Value of IC50 reported for the compound "COc1cc(O)cc(Br)c1O" is 1140 nM

"CCCCCc1cccc(OC)c1O" yielded IC50 of 3720 nM
